// data source = paper PMC10397247

I'd appreciate it if you could supply interaction score values for the items below.
MEASUREMENT TARGET: T1, P6-AA-12HGe-W
T1 chain: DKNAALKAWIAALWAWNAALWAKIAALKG
ASSAY: two-hybrid library CCmax;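 also: natural log of median RNA to DNA barcode read ratio; higher means stronger binding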
CONDITION CONTEXT: mean of both orientations

For the 7 binders below, give their interaction score values.
1. DENAALEASIAALSASNAALSAEIAALEG [P5-AA-12HGe-S]
2. DENAALEAYIAALYAYNAALYAEIAALEG [P5-AA-12HGe-Y]
3. DENAALEADIAALDADNAALDAEIAALEG [P5-AA-12HGe-D]
4. DENAALEATIAALTATNAALTAEIAALEG [P5-AA-12HGe-T]
5. DENAALEAWIAALWAWNAALWAEIAALEG [P5-AA-12HGe-W]
6. DENAALEAHIAALHAHNAALHAEIAALEG [P5-AA-12HGe-H]
7. DENAALEAQIAALQAQNAALQAEIAALEG [P5-AA-12HGe-Q]

1. -1.53
2. -0.852
3. -1.67
4. -1.07
5. -1.05
6. -2.54
7. -1.08

I would be grateful if you could provide interaction score for each of the following entries.
1. DENAALEAAIAALAAANAALAAEIAALEG [P5-AA-12HGe-A]
2. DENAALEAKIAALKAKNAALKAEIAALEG [4H1401-AA]
3. DENAALEAMIAALMAMNAALMAEIAALEG [P5-AA-12HGe-M]
4. DENAALEAEIAALEAENAALEAEIAALEG [P5-AA-12HGe-E]

1: -0.644; 2: -1.79; 3: -0.0463; 4: -0.981

Kindly indicate its recorded interaction score. Item: DENAALEARIAALRARNAALRAEIAALEG [P5-AA-12HGe-R] -1.7
